Tested on: Pa-30S small ribosomal subunit;Pa-aIF1* (MDCC-coumarin labeled) (Pyrococcus abyssi;Pyrococcus abyssi)
Assay comment: fluorescence anisotropy
Condition: Kd of aIF1* for 30S:mRNA; best fit 0.2 nM; Anisotropy: 10 mM HEPES pH 7.5, 200 mM NaCl, 10 mM Mg acetate, 0.1% Tween 20, 51 C; toeprinting: 10 mM HEPES pH 7.5, 158 mM NaCl, 20 mM NH4Cl, 13.5 mM Mg …
Measured metric: Kd

Per the records, this sequence ( AUUUGGAGGUGAUUUAAAUGCCAAAG [wt-aEF1A mRNA 26-mer, unlabeled] ) has Kd equal to < 1 nM

###

System: Pa-30S small ribosomal subunit;Pa-aIF1 (Pyrococcus abyssi;Pyrococcus abyssi)
Assay comment: fluorescence anisotropy
Condition: preformed 30S:aIF1; mRNA 0.5 nM; Anisotropy: 10 mM HEPES pH 7.5, 200 mM NaCl, 10 mM Mg acetate, 0.1% Tween 20, 51 C; toeprinting: 10 mM HEPES pH 7.5, 158 mM NaCl, 20 mM NH4Cl, 13.5 mM Mg …
Measured metric: Kd (nM)
Give bare numbers, in nM.

Per the records, this sequence ( AUUUGGAGGUGAUUUAAAUGCCAAAG [wt-aEF1A-mRNA 26-mer] ) has Kd equal to 0.07
